molecular target: T1, biotinylated CD3 epsilon:delta heterodimer protein (Amsbio AMS.CDD-H52WO) (Homo sapiens (Human), UniProt P07766 23-126; P04234 22-105); assay: BLI (Octet), CD3 on SA sensor, Fab analyte;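 further: fab analyte at several concentrations up to 300 nM, association 100 s then 300 s dissociation in buffer, biosensors blocked with biocytin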
T1 construct: also called CD3 heterodimer
Values of kon strictly less than 300000 M⁻¹ s⁻¹ map to MET, and values of at least 300000 M⁻¹ s⁻¹ map to NOT MET.

Binder | Group
huSP34.34.11 Fab-HF (Fab, V domains shown, also called HC34+LC11) VH: EVQLVESGGGLVQPGGSLRLSCAASGFTFNTYAMNWVRQAPGKGLEWVGRIRSKYNNYATYYAASVKGRFTISRDDSKNSLYLQMNSLKTEDTAMYYCVRHGNFGHSYVSWFAYWGQGTLVTVSS VL: QAVVTQEPSLTVSPGGTVTLTCGSSTGAVTTGHYANWVQQKPGQAPRGLIGGTNKRAPGVPARFSGSLLGGKAALTLSGAQPEDEAEYYCALWYSNLWVFGGGTKLTVL | MET
huSP34.34.17 Fab-HF (Fab, V domains shown, also called HC34+LC17) VH: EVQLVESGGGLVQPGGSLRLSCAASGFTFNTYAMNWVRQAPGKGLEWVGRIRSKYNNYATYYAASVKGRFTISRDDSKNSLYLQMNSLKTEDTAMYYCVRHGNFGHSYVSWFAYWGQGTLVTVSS VL: QAVVTQPPSLTVSPGGTVTLTCGSSTGAVTTGHYANWVQQKPGQAPRGLIGGTNKRAPWTPARFSGSLSGGKAALTISGAQPEDEAEYYCALWYSARWVFGGGTKLTVL | MET
huSP34.3.8 Fab-HF (Fab, V domains shown, also called HC3+LC8) VH: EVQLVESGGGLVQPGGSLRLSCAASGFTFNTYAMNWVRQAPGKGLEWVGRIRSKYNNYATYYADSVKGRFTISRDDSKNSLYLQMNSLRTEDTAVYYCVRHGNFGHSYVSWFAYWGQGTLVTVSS VL: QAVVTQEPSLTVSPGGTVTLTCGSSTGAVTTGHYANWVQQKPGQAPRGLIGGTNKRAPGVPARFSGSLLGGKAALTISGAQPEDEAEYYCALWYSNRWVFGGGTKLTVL | MET
huSP34.34.12 Fab-HF (Fab, V domains shown, also called HC34+LC12) VH: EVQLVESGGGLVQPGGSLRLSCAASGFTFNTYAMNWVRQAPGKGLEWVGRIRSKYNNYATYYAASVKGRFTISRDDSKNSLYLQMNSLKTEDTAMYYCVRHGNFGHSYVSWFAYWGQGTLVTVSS VL: QAVVTQPPSLTVSPGGTVTLTCGSSTGAVTTGHYANWVQQKPGQAPRGLIGGTNKRAPWTPARFSGSLSGGKAALTISGAQPEDEAEYYCALWYSNRWVFGGGTKLTVL | MET
huSP34.3.19 Fab-HF (Fab, V domains shown, also called HC3+LC19) VH: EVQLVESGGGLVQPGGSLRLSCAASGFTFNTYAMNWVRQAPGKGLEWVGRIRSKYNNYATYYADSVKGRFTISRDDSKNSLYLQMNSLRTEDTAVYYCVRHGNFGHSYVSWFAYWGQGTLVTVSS VL: QAVVTQEPSLTVSPGGTVTLTCGSSTGAVTTGHYANWVQQKPGQAPRGLIGGTNKRAPGVPARFSGSLLGGKAALTISGAQPEDEAEYYCALWYSARWVFGGGTKLTVL | MET
huSP34.34.14 Fab-HF (Fab, V domains shown, also called HC34+LC14) VH: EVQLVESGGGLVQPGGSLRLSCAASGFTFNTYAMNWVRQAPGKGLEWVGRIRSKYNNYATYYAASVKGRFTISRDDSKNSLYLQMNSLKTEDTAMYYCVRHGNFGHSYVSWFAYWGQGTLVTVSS VL: QAVVTQPPSLTVSPGGTVTLTCGSSTGAVTTGHYANWVQQKPGQAPRGLIGGTSNRAPGVPARFSGSLSGGKAALTISGAQPEDEAEYYCALWYSNRWVFGGGTKLTVL | NOT MET
huSP34.35.15 Fab-HF (Fab, V domains shown, also called HC35+LC15) VH: EVQLVESGGGLVQPGGSLRLSCAASGFTFNDYAMNWVRQAPGKGLEWVGRTRSKYNNYATYYAASVKGRFTISRDDSKNSLYLQMNSLKTEDTAMYYCVRHGNFGHSYVSWFAYWGQGTLVTVSS VL: QAVVTQPPSLTVSPGGTVTLTCGSSTGAVTTGHYANWVQQKPGQAPRGLIGGTNKRAPGVPARFSGSLSGGKAALTISGAQPEDEAEYYCALWYSARWVFGGGTKLTVL | NOT MET
huSP34.34.16 Fab-HF (Fab, V domains shown, also called HC34+LC16) VH: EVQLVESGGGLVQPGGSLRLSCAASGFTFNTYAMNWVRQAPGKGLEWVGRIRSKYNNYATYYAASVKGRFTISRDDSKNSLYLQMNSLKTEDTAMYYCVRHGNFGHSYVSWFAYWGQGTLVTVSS VL: QAVVTQPPSLTVSPGGTVTLTCGSSTGAVTTGHYANWVQQKPGQAPRGLIGGTSNRAPWTPARFSGSLSGGKAALTISGAQPEDEAEYYCALWYSNRWVFGGGTKLTVL | MET
huSP34.34.6 Fab-HF (Fab, V domains shown, also called HC34+LC6) VH: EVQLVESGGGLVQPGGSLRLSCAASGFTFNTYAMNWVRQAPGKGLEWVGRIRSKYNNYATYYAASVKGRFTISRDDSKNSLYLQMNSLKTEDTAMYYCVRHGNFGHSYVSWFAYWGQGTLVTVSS VL: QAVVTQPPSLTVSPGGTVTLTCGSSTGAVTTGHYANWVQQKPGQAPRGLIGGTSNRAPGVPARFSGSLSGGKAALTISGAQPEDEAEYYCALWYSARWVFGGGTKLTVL | NOT MET
huSP34.3.10 Fab-HF (Fab, V domains shown, also called HC3+LC10) VH: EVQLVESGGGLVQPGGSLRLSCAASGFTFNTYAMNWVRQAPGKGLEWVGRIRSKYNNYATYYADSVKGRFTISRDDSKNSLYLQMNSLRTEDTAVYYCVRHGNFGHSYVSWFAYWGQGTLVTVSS VL: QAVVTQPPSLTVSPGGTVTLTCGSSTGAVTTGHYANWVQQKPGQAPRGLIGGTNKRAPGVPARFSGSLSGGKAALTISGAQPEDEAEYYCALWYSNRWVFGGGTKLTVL | MET
